meta.source: paper doi:10.1101/2024.11.01.621267

Items are presented alongside their recorded dH.
Test Target: recombinant full-length RACK1 protein (ITC) (human, UniProt P63244 1-317)
Method: ITC; LARP4 peptide (400 μM; 300 μM for 600–625) injected into RACK1 (40 μM; 30 μM) in the cell; iTC200; 298K; 20 mM HEPES, 300 mM NaCl, 10% glycerol, 1 mM DTT pH 7.5; triplicate
Condition Context: both partners purified
Express the result in kcal/mol but write the number alone.

Check out these entries, answers already filled in.
Binder	Reading Unit	Measurement
QEPRKLSYAEVCQK (La-related protein 4 (LARP4), human, residues 612-625; source: synthetic peptide (GenScript)) [HsLARP4 peptide 612–625]	kcal/mol	-8.3
HsLARP4 peptide 587–637 (La-related protein 4 (LARP4), human, residues 587-637; source: synthetic peptide (GenScript)) peptide: TTKPSRASTASPCNNNINAATAVALQEPRKLSYAEVCQKPPKEPSSVLVQP	kcal/mol	-7.8
HsLARP4 peptide 575–625 (La-related protein 4 (LARP4), human, residues 575-625; source: synthetic peptide (GenScript)) peptide: LNQTTIPVSPPSTTKPSRASTASPCNNNINAATAVALQEPRKLSYAEVCQK	kcal/mol	-5.7

In the following, a different binder is considered.
Fill in the blank: the reported dH of RKLSYAEVCQK (La-related protein 4 (LARP4), human, residues 615-625 (within CR2); source: synthetic peptide (GenScript)) [HsLARP4 peptide 615–625] is ____. -8.1
